Data origin, for the record: ChEMBL document CHEMBL3988442

- Test System: Proteasome subunit beta (Trypanosoma cruzi) (UniProt O96673)
- Sequence (whole entry): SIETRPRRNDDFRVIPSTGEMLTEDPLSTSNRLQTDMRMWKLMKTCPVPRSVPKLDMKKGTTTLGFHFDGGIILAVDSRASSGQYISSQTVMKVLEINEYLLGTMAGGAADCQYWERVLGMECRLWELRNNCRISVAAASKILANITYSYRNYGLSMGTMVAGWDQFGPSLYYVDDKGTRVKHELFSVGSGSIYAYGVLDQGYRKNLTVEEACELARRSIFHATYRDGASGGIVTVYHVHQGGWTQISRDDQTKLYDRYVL
- Assay Overview: Trypanosoma cruzi proteasome chymotrypsin-like activity (TcProtChymo) assay.
- Assay type: functional
- Parameters: scale not given: in the data most compounds retested in dose-response had high values
- Condition Set: 9.37 µM
Mark Satisfied only for Percent Effect values smaller than 10%; exact matches and larger values are Not satisfied.

• Cc1noc([C@H]2C[C@@H]3CCN(C(=O)C4CCOCC4)C[C@H]3O2)n1 = Not satisfied
• CN(CCO)C[C@@H]1CN(C(=O)c2c(F)cccc2Cl)C[C@@H]1CO = Not satisfied
• Cc1nc(NCc2ccc(C)o2)cc(C(=O)N2CCOCC2)n1 = Not satisfied
• O=C(NCc1ccccc1)c1nnc2ccc(N3CCOCC3)cc2n1 = Not satisfied
• COc1ccc([C@@H]2CN(C(=O)CCC(F)(F)F)C[C@H]2NC(C)=O)cc1 = Not satisfied
• CN(C)S(=O)(=O)N1CCC(Oc2ccc(C#N)cn2)CC1 = Not satisfied
• COC(=O)c1sccc1S(=O)(=O)NCC1(O)CCOc2ccccc21 (stereo not drawn) = Satisfied
• CCC1=N[C@@]2(CC[C@@H]3CN(CC4CC4)C[C@@H]32)C(=O)N1C = Not satisfied
• CS(=O)(=O)NC[C@@H]1OC[C@H]2CN(C(=O)c3ccc[nH]3)CC[C@H]21 = Not satisfied
• CCn1cnnc1C1CCN(C(=O)c2ccccc2OC)CC1 = Satisfied
• CS(=O)(=O)NC[C@]12COC[C@H]1CN(C(=O)C1CCCCC1)C2 = Not satisfied
• COc1ccnc(N2CCN(C(=O)Cc3ccc(C#N)cc3)CC2)n1 = Not satisfied
• CCOc1ccc(C2CC(=O)Nc3c2c(=O)nc2sccn32)cc1 (stereo not drawn) = Satisfied
• Cc1nnc2n1CCN(Cc1csc(CC(=O)N(C)C)n1)C2 = Satisfied
• O=C(CC1CC1)N1CC[C@H]2[C@@H]1CCC(=O)N2c1cccnc1 = Not satisfied
• CN1CCN(C(=O)c2cncc(CC3CCCN(C)C3)c2)CC1 (stereo not drawn) = Not satisfied
• Cc1ncsc1C(=O)N1CCCC(c2noc(C(C)C)n2)C1 (stereo not drawn) = Not satisfied
• O=C(NCCC(=O)N1CCCC1)c1nn(-c2ccccc2F)cc1O = Satisfied
• COCCN1CCCC(O)(CN2CCN(c3ncccc3C)CC2)C1=O (stereo not drawn) = Not satisfied
• Cc1cnn(CC2CCCCN2Cc2nc(-c3ccoc3)no2)c1 (stereo not drawn) = Satisfied
• COc1ccc(F)cc1C(C)NC(=O)Nc1nnc(C)s1 (stereo not drawn) = Satisfied
• COCc1nc2cc(NCc3ccc(C)o3)ccc2o1 = Not satisfied
